# tgt: T1, Peptide 8: Biotin-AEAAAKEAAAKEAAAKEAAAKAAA-Tyr-acid (N-terminal biotin; C-terminal acid)
# T1 construct: control peptide without PC
# T1 peptide: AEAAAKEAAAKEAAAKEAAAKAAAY
# assay text: scFv ELISA

| binder | units of measure | OD450 |
| --- | --- | --- |
| PcOxP_DB01_D09 (scFv, V domains shown, scFv in periplasmic extract) VH: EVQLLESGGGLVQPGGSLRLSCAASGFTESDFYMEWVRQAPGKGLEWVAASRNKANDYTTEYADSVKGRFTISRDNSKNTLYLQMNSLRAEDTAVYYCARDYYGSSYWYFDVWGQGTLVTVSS VL: DIQMTQSPSSLSASVGDRVTITCTASESLYSAKHKVHYLAWYQQKPGKAPKLLIYGSSNRYIGVPSRFSGSGSGTDFTLTISSLQPEDFATYYCAQFYDYPLTFGGGTKVEIK | OD450 | 0.05 |
| PcOxP_DB02_G07 (scFv, V domains shown, scFv in periplasmic extract) VH: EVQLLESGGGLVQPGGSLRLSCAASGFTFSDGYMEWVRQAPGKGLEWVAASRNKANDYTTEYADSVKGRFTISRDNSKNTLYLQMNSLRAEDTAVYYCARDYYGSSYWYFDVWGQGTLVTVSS VL: DIQMTQSPSSLSASVGDRVTITCTASESLYSSKHKVHYLAWYQQKPGKAPKLLIYGASNRYGGVPSRFSGSGSGTDFTLTISSLQPEDFATYYCAQFYSYPLTFGGGTKVEIK | OD450 | 0.09 |
| PcOxP_DB01_A06 (scFv, V domains shown, scFv in periplasmic extract) VH: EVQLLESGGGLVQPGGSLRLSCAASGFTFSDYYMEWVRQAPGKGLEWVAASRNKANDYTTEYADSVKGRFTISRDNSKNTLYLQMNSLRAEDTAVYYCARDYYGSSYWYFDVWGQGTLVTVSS VL: DIQMTQSPSSLSASVGDRVTITCTASESLYSSKHKVHYLAWYQQKPGKAPKLLIYGASNRYIGVPSRFSGSGSGTDFTLTISSLQPEDFATYYCAEFYSYPLTFGGGTKVEIK | OD450 | 0.06 |
| PcOxP_DB02_A11 (scFv, V domains shown, scFv in periplasmic extract) VH: EVQLLESGGGLVQPGGSLRLSCAASGFTFSDGYMEWVRQAPGKGLEWVAASRNIANDYTTEYADSVKGRFTISRDNSKNTLYLQMNSLRAEDTAVYYCARDYYGSSYWYFDVWGQGTLVTVSS VL: DIQMTQSPSSLSASVGDRVTITCTASESLYSSKHKVHYLAWYQQKPGKAPKLLIYGASNRYHGVPSRFSGSGSGTDFTLTISSLQPEDFATYYCAQFYYYPLTFGGGTKVEIK | OD450 | 0.04 |
| PcOxP_DB03_C06 (scFv, V domains shown, scFv in periplasmic extract) VH: EVQLLESGGGLVQPGGSLRLSCAASGATFSDFYMEWVRQAPGKGLEWVAASRNGANDYTTEYADSVKGRFTISRDNSKNTLYLQMNSLRAEDTAVYYCARDYYGNSYWYFDVWGQGTLVTVSS VL: DIQMTQSPSSLSASVGDRVTITCTASESLYSSKHKVHYLAWYQQKPGKAPKLLIYGASNRQSGVPSRFSGSGSGTDFTLTISSLQPEDFATYYCAQFYVYPLTFGGGTKVEIK | OD450 | 0.05 |
| PcOxP_DB03_E07 (scFv, V domains shown, scFv in periplasmic extract) VH: EVQLLESGGGLVQPGGSLRLSCAASGFTFSDNYMEWVRQAPGKGLEWVAASRNKANDYTNEYADSVKGRFTISRDNSKNTLYLQMNSLRAEDTAVYYCARDYYGSSYWYFDVWGQGTLVTVSS VL: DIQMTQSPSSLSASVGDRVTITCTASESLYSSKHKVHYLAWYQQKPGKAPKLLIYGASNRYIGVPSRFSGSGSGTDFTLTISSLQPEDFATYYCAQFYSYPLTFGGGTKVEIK | OD450 | 0.05 |
| PcOxP_DB01_D02 (scFv, V domains shown, scFv in periplasmic extract) VH: EVQLLESGGGLVQPGGSLRLSCAASGFEFSDFYMEWVRQAPGKGLEWVAASRGKGNSYTTEYADSVKGRFTISRDNSKNTLYLQMNSLRAEDTAVYYCARDYYGSSYWYFDVWGQGTLVTVSS VL: DIQMTQSPSSLSASVGDRVTITCTASESLYSSKHKVHYLAWYQQKPGKAPKLLIYGASNRYIGVPSRFSGSGSGTDFTLTISSLQPEDFATYYCGQFYSYPLTFGGGTKVEIK | OD450 | 0.05 |
| PcOxP_DB02_F02 (scFv, V domains shown, scFv in periplasmic extract) VH: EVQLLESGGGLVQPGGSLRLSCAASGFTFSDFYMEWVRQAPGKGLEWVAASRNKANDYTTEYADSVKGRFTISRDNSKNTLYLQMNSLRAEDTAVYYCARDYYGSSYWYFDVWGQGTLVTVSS VL: DIQMTQSPSSLSASVGDRVTITCFASESLYSSKHKVHYLAWYQQKPGKAPKLLIYGASNRGIGVPSRFSGSGSGTDFTLTISSLQPEDFATYYCAQFYSYPLTFGGGTKVEIK | OD450 | 0.05 |
| PcOxP_DB01_B04 (scFv, V domains shown, scFv in periplasmic extract) VH: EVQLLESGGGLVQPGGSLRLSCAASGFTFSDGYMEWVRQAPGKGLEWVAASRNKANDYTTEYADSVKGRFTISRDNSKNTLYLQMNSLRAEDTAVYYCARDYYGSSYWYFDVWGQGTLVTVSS VL: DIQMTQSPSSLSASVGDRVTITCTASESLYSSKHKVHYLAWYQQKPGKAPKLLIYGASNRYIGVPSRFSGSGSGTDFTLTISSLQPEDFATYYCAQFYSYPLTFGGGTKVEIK | OD450 | 0.05 |
| PcOxP_DB01_C04 (scFv, V domains shown, scFv in periplasmic extract) VH: EVQLLESGGGLVQPGGSLRLSCAASGFQFSDFYMEWVRQAPGKGLEWVAASRNKANDYTTEYADSVKGRFTISRDNSKNTLYLQMNSLRAEDTAVYYCARDYYGSSYWYFDVWGQGTLVTVSS VL: DIQMTQSPSSLSASVGDRVTITCTASESLYSSKHKVHYLAWYQQKPGKAPKLLIYGASNRYIGVPSRFSGSGSGTDFTLTISSLQPEDFATYYCAQFYYYPLTFGGGTKVEIK | OD450 | 0.05 |
